The origin of these recorded values is the DeepSol protein solubility set.

test: soluble on expression in E. coli; label from the status in PepcDB or PDB records
assay-endpoint: soluble on expression in E. coli

Example entries and their recorded answers appear below.
1) MDQALYSLETRFEQFQRYEQIFGFLFDLKKLQSASDDSLMASCTNLKDALTHGTHSDILASDLFYELKILREALPKEVRRPIEVLDFLQKVEGCYPNSWIAYQVLLTIPVSVASAERSFSKLKLIKSYLRSSMSQERLSDLAILSIERALVREVDFERLANDFVGKKGRRITL : soluble
2) MSDNALTSSRRFGGIARLYGDSALAHFSQAHVCVVGVGGVGSWAVEALARTGIGRLTLIDLDNVAESNVNRQLHALTGDFGKAKVTALRERITQINPQCEVFEIEDFVTEDNLPEYFGKGFDFVIDAIDQVRVKAAMAAYFVERKQPFVLSGGAGGQKNPALIQTADLSRVTHDPLLANLRYTLRKRYGFSRDTKANMRVPCVYSTENIVPPQSREACSADAAPQGLSCAGYGASMLVTASFGLYCAQAAVEHIADKKLEHHHHHH : soluble
3) MGSDKIHHHHHHMTARWRSANGRPAPTRVEVVSDSLTADDANRMASQGIAMLWQGDFHNARQILNAMDRRIGAGKKETAATPAEKFYRHRQSASHRARILGLLLIPLDPGPVVPLRRAPDIRQAAAGAYGDIGEPSVVSLHELVGAIGAHEWRRNGVYVDALEGRIHPHYGTFFPTRSEYVDLVAAAALPSDTLAFDVGTGTGVLAAVLARRGVRSVVATDNEPRAIACAAENFRNLGVQDRAEAVLTDMFPPGRAPLIVCNPPWIPATPHSSLDSAVYDPGSRMLFRFLNELSDHLEPGGEGWLVLSDLAEHLGLRSRGDLLAAIEAAGLKVVERLDTKPTHPKASDRDDPLFEARTAEVTSLWRLVPR : not soluble
4) MSLEDVIEKLRELNEPVPVPLELPEEELLVEIEEELLIGIPAEFREFLLLVSDVVYGRLEPVTVTDPHSHTYLPEVAATAWDLGVPRELIPLCEDDGSYYCVAEDGEVVLWADGDLTDESWDSVWVWARDVWLESEGHHHHHH : soluble
5) ADERLQFTATTLSGAPFDGASLQGKPAVLWFWTPWCPFCNAEAPSLSQVAAANPAVTFVGIATRADVGAMQSFVSKYNLNFTNLNDADGVIWARYNVPWQPAFVFYRADGTSTFVNNPTAAMSQDELSGRVAALTS : soluble

Let's switch to this sequence now.
Query :: In one line, give reported soluble on expression in E. coli of the entry MGSDKIHHHHHHMQVIKQKLTATCAQLTGYLHQPDTNAHQTNLPAIIIVPGGSYTHIPVAQAESLAMAFAGHGYQAFYLEYTLLTDQQPLGLAPVLDLGRAVNLLRQHAAEWHIDPQQITPAGFSVGGHIVALYNDYWATRVATELNVTPAMLKPNNVVLGYPVISPLLGFPKDDATLATWTPTPNELAADQHVNSDNQPTFIWTTADDPIVPATNTLAYATALATAKIPYELHVFKHGPHGLALANAQTAWKPDANQPHVAHWLTLALEWLADNR .
Result :: not soluble

* * *

assay: soluble on expression in E. coli; label from the status in PepcDB or PDB records
assay-endpoint: soluble on expression in E. coli

1. MKKTDTLPATLSALIQEYSIAEGIQMAEQQVRENPAKALCRHSLFQLLCVAGDWSRALHQLQLCARMEANYTQEARLYRELVRCEMFRHTVFQGEQRPGFLLPQPVWVESLLAALACHDDTGEVDKHRNTALEAITDTGGQWNGGAFDWASDSDSRLGPVLELVTGGVYIWLPFSQIRSLESPQPTRLTDLLWKPVNITLVNGDTHGAWLFTRYSGSESASDALRLCRETAWQDGPGETTVRALGQKVWLTSHGDISLLDMAHCTFHAQENDGA : not soluble
2. MAGEEINEDYPVEIHEYLSAFENSIGAVDEMLKTMMSVSRNELLQKLDPLEQAKVDLVSAYTLNSMFWVYLATQGVNPKEHPVKQELERIRVYMNRVKEITDKKKAGKLDRGAASRFVKNALWEPKSKNASKVANKGKSKS : not soluble

* * *

assay: soluble on expression in E. coli; label from the status in PepcDB or PDB records
assay-endpoint: soluble on expression in E. coli

1. MSLTPRDHTLILIDYQSQMAFATHSIDIPTLRNNAGLVASAAAGFGVSAILTTVAEKSFSGPMFDEVTAPFPDLRMLDRTSMNTWEDAAVIDRVNQIGKGRIVLAGLWTSVCIVGPALSALDQGFEVYVIADACGDISAEAHERAMQRMVQAGARPITSLQYLLELQRDWARTDTYELTTGIAAKLGGGYGLGIRYAKTMFGGHEGHHHHHH : soluble
2. MSLQRKRIVRERVVYVLDYMREGNPLDKHKFHRDKPLIQAVGEDYFLLLELTPLSYNLDFLPEDKIELDSNSSVKVDAHISYEDLTSVSRDNLPKILYKIVFEKEKVFVEIFNKAEPLTLRLHALELLPNIGKKTLRIILEERKKKPFESFKDIESRIGVKDVASILVERIIKEMQGGEKYYLFVYPLIPDENKRLEQQFIYVGYIEKLKEGHHHHHH : soluble

* * *

test: soluble on expression in E. coli; label from the status in PepcDB or PDB records
assay-endpoint: soluble on expression in E. coli

1) MKNTFVYQAEKPVIKLLQITDPHLFKDESAELLGVNTQASFAQVLKEIQQENNEFDVILATGDLVQDSSDEGYIRFVEMMKPFNKPVFWIPGNHDFQPKMAEFLNQPPMNAAKHLLLGEHWQALLLDSQVYGVPHGQLSQHQLDLLKETLGKNPERYTLVVLHHHLLPTNSAWLDQHNLRNSHELAEVLAPFTNVKAILYGHIHQEVNSEWNGYQVMATPATCIQFKPDCQYFSLDTLQPGWREIELHSDGSIRTEVKRIQQAEFFPNMQEEGY : not soluble
2) MCILFIAIEQHPKYPLIICANRDEFHQRPTQAMHVWQESNILAGKDLQAGGTWLGLSSTGKFAALTNFRKLPLSEAPKKSRGDLVLQALADTKINMTAELAQQASQYHGFNLIYGSLKQLYCYDSVNNQSHQLSDGVHSICNGALDDIWPKMARGEKLLSETIRSQKNLSIEALFDLMTNDKQALPHLLPETGLDEEWEQLLSAIFIKSPTYGTRTTTIITQDVEGNVETYDRSYAPSGECITKQQFNLATVFDLEHHHHHH : not soluble

* * *

experiment: soluble on expression in E. coli; label from the status in PepcDB or PDB records
assay-endpoint: soluble on expression in E. coli

1) MIKVVVRKRPLSELEKKKKDSDIITVKNNCTLYIDEPRYKVDMTKYIERHEFIVDKVFDDTVDNFTVYENTIKPLIIDLYENGCVCSCFAYGQTGSGKTYTMLGSQPYGQSDTPGIFQYAAGDIFTFLNIYDKDNTKGIFISFYEIYCGKLYDLLQKRKMVAALENGKKEVVVKDLKILRVLTKEELILKMIDGVLLRKIGVNSQNDESSRSHAILNIDLKDINKNTSLGKIAFIDLAGSERGADTVSQNKQTQTDGANINRSLLALKECIRAMDSDKNHIPFRDSELTKVLRDIFVGKSKSIMIANISPTISCCEQTLNTLRYSSRVKNKGNSKLEGKPIPNPLLGLDSSRTGHHHHHH : soluble
2) MSLEEAVDLSVLYVEDDELSRSGIFNALKRKVKNIHFAANGQEGLEVFKEHRPDVVITDIKMPLLNGLEMAKQILEMEPSVEIIVATAFEDAELFKRAIDLDVDKYLTKPLDVTQILMHLKRIEMQKRLEREFEVYSRALNEVASIFWFDLELECLKVNPRAIASGGEHGVENEKLKEMARLALEKGGRHQEGNKIFSVAFNVAKEPKGFCLCVMESMEEGHHHHHH : soluble

* * *

test: soluble on expression in E. coli; label from the status in PepcDB or PDB records
assay-endpoint: soluble on expression in E. coli

1. MNVMRHSWLAVAGIAGLLAFPPVDACTLWGAAGTASMEGSLLAKNRDWKPDHAQSLRLLHPEHGYAYLGLYADNGSEPGIKAGVNQKGLAVVAAEASSLPRALRADSARHGVLTRLLRDYGSLDEVASAADKLFAQARPVFLLLADAGGLMQVEIGQHGRYRLIRQQSGTLAHTNHYADTSLLDGAQTIGPSSQARLERIRFLLDQHPAHTLSEFERLSRDRHDGPDNSLWRSGREHTLAGWRIALPAGAPPRLQLTLANPGRAERDGDYALDSAFWAQPARTLLPKLAAALEHHHHHH : soluble
2. MKIFIVGSTGRVGKSLLKSLSTTDYQIYAGARKVEQVPQYNNVKAVHFDVDWTPEEMAKQLHGMDAIINVSGSGGKSLLKVDLYGAVKLMQAAEKAEVKRFILLSTIFSLQPEKWIGAGFDALKDYYIAKHFADLYLTKETNLDYTIIQPGALTEEEATGLIDINDEVSASNTIGDVADTIKELVMTDHSIGKVISMHNGKTAIKEALESLLEHHHHHH : soluble
